Hi there, I'd appreciate the recorded TTC change vs vehicle (%) at 10 µM for every entry that follows.
System: isolated Langendorff rat hearts
Test Name: Cardioprotective effect (time to contracture, TTC) in globally ischemic isolated Langendorff rat hearts
Design: species or system rat (male Wistar)
Condition Description: Rattus norvegicus; 10^-5 M; compared to the vehicle treated group
Counter-ions that a name gives are not always drawn.
Your answer should be a plain number; it is taken to be in %.

Problem: State measured TTC change vs vehicle (%) at 10 µM of the compound CC1(C)Oc2ccc(C#N)cc2[C@@H](N2CCCC2=O)[C@@H]1O [lemakalim, reference compound] with isolated Langendorff rat hearts.
Solution: 55

Problem: State measured TTC change vs vehicle (%) at 10 µM of the compound CSc1nc(N)n(-c2nnc(-c3cccc(OCCCN(C)C)c3)s2)n1 [Example 26, hydrochloride] with isolated Langendorff rat hearts.
Solution: 41

Problem: State measured TTC change vs vehicle (%) at 10 µM of the compound CN1CCN(c2nc(N)n(-c3nnc(-c4c(Cl)cccc4Cl)s3)n2)CC1 [Example 10, hydrochloride monohydrate] with isolated Langendorff rat hearts.
Solution: 74

Problem: State measured TTC change vs vehicle (%) at 10 µM of the compound CSc1nc(N)n(-c2nnc(-c3ccccc3OCCCN(C(C)C)C(C)C)s2)n1 [Example 45] with isolated Langendorff rat hearts.
Solution: 31

Problem: State measured TTC change vs vehicle (%) at 10 µM of the compound CCN(CCO)CCOc1ccccc1-c1nnc(-n2nc(N3CCCCC3)nc2N)s1 [Example 90] with isolated Langendorff rat hearts.
Solution: 36

----------
Hi there, I'd appreciate the recorded Ki for every entry that follows.

Problem: State measured Ki of the compound CN(C)CCCOc1ccccc1-c1nnc(-n2nc(N3CCCC3)nc2N)s1 with 5-HT2A receptor (Rattus norvegicus).
Sequence (P14842 whole entry): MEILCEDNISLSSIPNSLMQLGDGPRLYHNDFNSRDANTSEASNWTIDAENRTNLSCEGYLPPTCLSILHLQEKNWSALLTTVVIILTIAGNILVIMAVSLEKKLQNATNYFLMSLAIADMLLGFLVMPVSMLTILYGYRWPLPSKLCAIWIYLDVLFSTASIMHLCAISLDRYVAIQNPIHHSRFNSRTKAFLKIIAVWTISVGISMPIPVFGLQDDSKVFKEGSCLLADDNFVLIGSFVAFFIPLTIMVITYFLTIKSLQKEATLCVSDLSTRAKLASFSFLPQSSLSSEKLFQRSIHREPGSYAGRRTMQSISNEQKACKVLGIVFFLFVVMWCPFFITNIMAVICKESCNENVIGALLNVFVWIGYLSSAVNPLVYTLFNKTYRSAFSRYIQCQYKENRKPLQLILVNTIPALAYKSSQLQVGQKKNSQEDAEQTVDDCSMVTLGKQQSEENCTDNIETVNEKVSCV
Solution: > 100 nM

Problem: State measured Ki of the compound COc1ccc(CCN(C)CCCOc2ccccc2-c2nnc(-n3nc(SC)nc3N)s2)cc1OC with 5-HT2A receptor (Rattus norvegicus).
Solution: > 1000 nM

----------
Assayed Target: 5-HT2C receptor (Sus scrofa)
Construct: pig brain choroid plexus membrane-preparation; from tissue; host or cells: pig brain choroid plexus membranes
Sequence (K7GSR7 1-457): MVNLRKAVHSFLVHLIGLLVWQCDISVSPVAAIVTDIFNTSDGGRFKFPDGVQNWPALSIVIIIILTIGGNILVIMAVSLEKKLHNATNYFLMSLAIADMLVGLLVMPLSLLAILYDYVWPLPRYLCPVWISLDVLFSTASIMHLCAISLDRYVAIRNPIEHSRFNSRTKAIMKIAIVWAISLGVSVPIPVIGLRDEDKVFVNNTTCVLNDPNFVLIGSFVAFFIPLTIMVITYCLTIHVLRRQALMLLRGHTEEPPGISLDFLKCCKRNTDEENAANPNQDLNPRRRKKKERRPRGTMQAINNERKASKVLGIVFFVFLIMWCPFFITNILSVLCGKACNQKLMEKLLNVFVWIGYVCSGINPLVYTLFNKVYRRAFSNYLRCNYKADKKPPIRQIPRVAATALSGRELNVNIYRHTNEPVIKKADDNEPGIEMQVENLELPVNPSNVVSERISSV
Test Name: 5-HT2C receptor binding, pig brain choroid plexus membrane, tritiated mesulergine
Condition Description: read-out: Inhibition of receptor binding of the radioactive ligand (Ki), 5-HT2C
Method: 4) 5-HT2A and 5-HT2C Receptor Binding Studies 5-HT2A and 5-HT2C receptor binding was measured according to the methods described by Leysen et al. /Mol. Pharmacol., 21, 301 (1981)/and Pazos et al. /Eur. J. Pharmacol., 106, 539 (1985)/, respectively. 5-HT2A receptor binding was measured in rat brain frontal cortex membrane preparation using tritiated ketanserine /3-/2-(4-fluorobenzoyl)-1-piperidinyl/ethyl-2,4-(1H,3H)-quinazolinedione/ (60-90 Ci/mmole) as ligand. […]
Hi there, I'd appreciate the recorded pKi for every entry that follows.
Just the number, please; pKi means minus log10 of the concentration in mol/L.

Problem: Quote pKi reported for CN(C)CCCOc1ccccc1-c1nnc(-n2nc(N3CCCC3)nc2N)s1 please.
Solution: 7.30

Problem: Quote pKi reported for COc1ccc(CCN(C)CCCOc2ccccc2-c2nnc(-n3nc(SC)nc3N)s2)cc1OC please.
Solution: 7.62
